Quick reference for CC50 among some compounds
- System: HEL
- test_description: Cytotoxicity against HEL cells infected with Cytomegalovirus assessed as growth inhibition
- Assay type: cell-based
- test_conditions: human
# output: bare number, implied unit µM

Some solved entries appear below for comparison.
Known value: HEL CC50 of the compound CCOP(=O)(OCC)C1CC(Cn2c(=O)n(Cc3ccccc3)c(=O)c3ccccc32)ON1Cc1ccccc1 (mixture of isomers; cis) equals 9

Known value: HEL CC50 of the compound CCOP(=O)(OCC)C1CC(Cn2c(=O)n(Cc3ccccc3)c(=O)c3ccccc32)ON1Cc1ccccc1 (mixture of isomers; trans) equals 41.7

Known value: HEL CC50 of the compound CCOP(=O)(OCC)C1CC(Cn2c(=O)n(Cc3cccc(F)c3)c(=O)c3ccccc32)ON1Cc1ccccc1 (mixture of isomers; trans) equals 20.8

Known value: HEL CC50 of the compound CCOP(=O)(OCC)C1CC(Cn2c(=O)n(Cc3ccc(F)cc3)c(=O)c3ccccc32)ON1Cc1ccccc1 (mixture of isomers; trans) equals 6.6

Now examine the next entry.
Known value: HEL CC50 of the compound CCOP(=O)(OCC)C1CC(Cn2c(=O)n(Cc3ccccc3F)c(=O)c3ccccc32)ON1Cc1ccccc1 (configuration not stated) equals 11.8

The origin of these recorded values is ChEMBL document CHEMBL3994569.
